# studyTarget: ROCK2 Human recombinant enzyme (Homo sapiens)
# Construct: ROCK2 Human recombinant enzyme (residues 11-552, histidine-tagged, expressed in insect cells); His tag
# Sequence (O75116 11-552): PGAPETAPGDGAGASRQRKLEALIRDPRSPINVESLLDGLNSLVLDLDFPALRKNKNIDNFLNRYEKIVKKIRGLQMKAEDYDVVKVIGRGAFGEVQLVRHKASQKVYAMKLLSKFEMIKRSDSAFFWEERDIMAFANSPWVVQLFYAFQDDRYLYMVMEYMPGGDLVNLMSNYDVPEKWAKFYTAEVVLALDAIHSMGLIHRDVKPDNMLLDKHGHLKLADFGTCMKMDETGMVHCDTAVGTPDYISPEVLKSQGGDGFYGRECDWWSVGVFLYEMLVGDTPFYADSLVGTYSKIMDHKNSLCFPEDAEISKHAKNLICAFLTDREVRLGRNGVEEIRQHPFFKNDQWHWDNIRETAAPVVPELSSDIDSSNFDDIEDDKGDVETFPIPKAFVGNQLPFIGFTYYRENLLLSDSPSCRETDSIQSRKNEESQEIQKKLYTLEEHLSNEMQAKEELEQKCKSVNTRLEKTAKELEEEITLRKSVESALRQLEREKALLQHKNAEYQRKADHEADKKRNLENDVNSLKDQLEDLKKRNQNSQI
# protocolSummary: ROCK2 In Vitro Enzyme Assay (Transcreener Kinase ADP-FP)
# testParameters: 10 micromolar ATP; read-out: IC50 against ROCK2
reportedMetric: IC50

Notebook: C[C@@H]1CC(=O)Nc2ncnc(N3CCC(c4nc(Cl)cn4CCN4CCCC4)CC3)c21 , IC50 read as > 20 µM

====

# studyTarget: hAKT1 Human Recombinant (Homo sapiens)
# Construct: His tag
# Sequence (P31749 whole entry): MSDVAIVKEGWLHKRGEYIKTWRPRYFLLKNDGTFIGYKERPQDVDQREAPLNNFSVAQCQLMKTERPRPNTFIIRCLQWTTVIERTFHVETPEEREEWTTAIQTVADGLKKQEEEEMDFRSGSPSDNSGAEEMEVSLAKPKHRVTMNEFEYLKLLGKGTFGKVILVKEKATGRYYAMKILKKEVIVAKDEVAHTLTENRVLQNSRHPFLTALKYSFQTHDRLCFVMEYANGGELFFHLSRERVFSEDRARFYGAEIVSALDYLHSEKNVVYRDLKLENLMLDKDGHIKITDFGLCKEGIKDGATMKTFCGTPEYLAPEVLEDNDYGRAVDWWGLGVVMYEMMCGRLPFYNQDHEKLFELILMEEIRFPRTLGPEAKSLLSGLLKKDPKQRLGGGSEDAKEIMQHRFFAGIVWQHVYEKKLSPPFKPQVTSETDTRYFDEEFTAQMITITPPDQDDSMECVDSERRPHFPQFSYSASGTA
# protocolSummary: AKT1 In Vitro Enzyme Assay (Transcreener Kinase ADP-FP)
# testParameters: 20 micromolar ATP; read-out: IC50 against AKT1
reportedMetric: IC50
The answer should read as a number with its unit following.

Per the record, C[C@@H]1CC(=O)Nc2ncnc(N3CCC(c4nc(Cl)cn4CCN4CCCC4)CC3)c21 has IC50 of 17 nM
